Listed below: phosphorylation enrichment values for each entry.
Molecular target: EPHB1 (UniProt P54762)
Sequence (P54762 whole entry, looked up): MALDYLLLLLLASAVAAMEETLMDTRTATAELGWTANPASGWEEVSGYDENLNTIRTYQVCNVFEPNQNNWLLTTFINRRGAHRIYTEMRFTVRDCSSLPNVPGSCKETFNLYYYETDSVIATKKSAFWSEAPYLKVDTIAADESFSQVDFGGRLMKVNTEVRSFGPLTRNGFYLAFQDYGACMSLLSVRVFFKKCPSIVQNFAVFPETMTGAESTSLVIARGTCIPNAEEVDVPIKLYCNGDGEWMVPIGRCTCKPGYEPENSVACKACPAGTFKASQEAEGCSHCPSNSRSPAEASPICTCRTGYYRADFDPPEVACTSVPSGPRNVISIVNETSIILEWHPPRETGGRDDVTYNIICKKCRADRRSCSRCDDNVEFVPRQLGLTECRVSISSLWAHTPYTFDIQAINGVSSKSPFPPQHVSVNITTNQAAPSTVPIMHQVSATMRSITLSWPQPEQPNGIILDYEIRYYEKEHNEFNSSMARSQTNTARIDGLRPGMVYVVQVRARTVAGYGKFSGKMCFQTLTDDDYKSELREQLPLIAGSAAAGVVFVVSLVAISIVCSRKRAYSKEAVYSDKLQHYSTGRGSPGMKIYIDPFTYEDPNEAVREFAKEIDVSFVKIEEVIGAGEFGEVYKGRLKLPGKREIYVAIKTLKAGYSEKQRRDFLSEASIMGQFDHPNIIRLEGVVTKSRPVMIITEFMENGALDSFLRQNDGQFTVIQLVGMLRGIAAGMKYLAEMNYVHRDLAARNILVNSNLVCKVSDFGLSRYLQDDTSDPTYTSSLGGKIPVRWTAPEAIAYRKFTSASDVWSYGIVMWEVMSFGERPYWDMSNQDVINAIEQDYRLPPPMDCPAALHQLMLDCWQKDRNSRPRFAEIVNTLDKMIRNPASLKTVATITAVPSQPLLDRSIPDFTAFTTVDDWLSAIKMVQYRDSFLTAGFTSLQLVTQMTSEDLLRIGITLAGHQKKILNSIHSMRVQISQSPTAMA
Test: phosphorylation enrichment, bacterial display (enrichment ratio); higher = better substrate or ligand; peptides without Tyr show the background;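 also: 11-residue human phosphosite peptides and single-mutation variants displayed on the E. coli surface, counted by deep sequencing, each peptide's frequency after selection divided by its frequency in the unselected input library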;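 also: frequency after pTyr selection over input frequency; kinase dosed for 20-30% of maximal phosphorylation in three min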
endpoint: phosphorylation enrichment

>>> measured_result("WCSNDYLGMSQ [ALAS2_Y199_R204Q]")
1.52
>>> measured_result("KPVDTYYDSTR [DYNC2H1_Y2230_M2227V]")
0.648
>>> measured_result("MSRDVYSTDYY [NTRK2_Y702]")
2.16
>>> measured_result("PLQKTYNYNVL [SLC4A1_Y553]")
0.66
>>> measured_result("NMHSTYAKLAA [SEC22B_Y193]")
0.437
>>> measured_result("KHGGNYVPAPK [OSCP1_Y237]")
0.407
>>> measured_result("CRAVKYLQMVD [AVPR2_Y117_G122D]")
0.508
>>> measured_result("HILQLYRCREE [ALPK3_Y342_T338I]")
0.924
>>> measured_result("SFDLDYDSVQP [MYC_Y16_N11S_YF]")
0.644
>>> measured_result("TYEYKYPEGSS [TGM4_Y440]")
0.526
>>> measured_result("GKSDPYHATTG [GJA1_Y247_S251T]")
0.287
>>> measured_result("ADNQRYAFMPL [TMEM87B_Y460_N456D]")
1.07
>>> measured_result("RKIMGYSIRTI [IDS_Y490_I485R]")
0.676
>>> measured_result("PLDGEYFTLQI [TP53_Y327]")
1.32
>>> measured_result("AKKIKYFEGVS [PRKDC_Y682]")
0.324
>>> measured_result("SIKDKYVTALC [KCNH2_Y611_Y616C]")
0.387
>>> measured_result("IDNKMYDPKMN [ENPP1_Y280]")
0.369
>>> measured_result("DPADRYLTEQF [CDKL5_Y286_C291Y_YF]")
0.514
>>> measured_result("FAKTQYPDVFA [CRX_Y63_YF]")
0.469
>>> measured_result("YGSSSSGGAGG [RPA2_Y14_Y14S]")
0.304
>>> measured_result("DTCPPYVLSQG [GJB4_Y237]")
0.637
>>> measured_result("RRNTYYASIAK [ACADM_Y353]")
0.702
>>> measured_result("WQQQSYLDSGS [CTNNB1_Y30_I35S]")
0.436

###

Molecular target: MERTK (UniProt Q12866)
Sequence (Q12866 whole entry, looked up): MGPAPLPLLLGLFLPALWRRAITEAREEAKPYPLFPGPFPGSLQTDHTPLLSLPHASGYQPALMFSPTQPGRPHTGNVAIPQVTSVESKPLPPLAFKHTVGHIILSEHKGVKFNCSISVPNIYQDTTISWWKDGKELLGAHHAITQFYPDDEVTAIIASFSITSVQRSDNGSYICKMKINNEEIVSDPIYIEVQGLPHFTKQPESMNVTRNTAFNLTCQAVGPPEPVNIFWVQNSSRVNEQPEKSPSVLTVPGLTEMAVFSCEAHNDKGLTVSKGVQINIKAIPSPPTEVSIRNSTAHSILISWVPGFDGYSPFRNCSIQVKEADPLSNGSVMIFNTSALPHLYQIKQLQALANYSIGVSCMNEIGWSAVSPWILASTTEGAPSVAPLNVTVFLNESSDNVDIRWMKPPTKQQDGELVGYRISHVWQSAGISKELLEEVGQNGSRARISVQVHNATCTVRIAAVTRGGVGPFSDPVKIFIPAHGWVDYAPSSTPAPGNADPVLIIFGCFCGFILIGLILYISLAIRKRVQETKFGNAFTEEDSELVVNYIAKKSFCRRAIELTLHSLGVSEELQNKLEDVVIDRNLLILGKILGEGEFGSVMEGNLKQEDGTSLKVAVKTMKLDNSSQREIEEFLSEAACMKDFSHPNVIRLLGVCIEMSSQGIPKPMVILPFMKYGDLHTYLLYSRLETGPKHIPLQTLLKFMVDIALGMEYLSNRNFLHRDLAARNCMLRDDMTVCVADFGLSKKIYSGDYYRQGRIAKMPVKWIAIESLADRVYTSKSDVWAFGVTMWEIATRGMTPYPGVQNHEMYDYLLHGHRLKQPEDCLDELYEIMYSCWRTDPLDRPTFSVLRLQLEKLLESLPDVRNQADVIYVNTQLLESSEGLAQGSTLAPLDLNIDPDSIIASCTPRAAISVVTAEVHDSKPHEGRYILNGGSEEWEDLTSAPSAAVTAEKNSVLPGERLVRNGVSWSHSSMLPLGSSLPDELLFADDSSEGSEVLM
Assay: phosphorylation enrichment, bacterial display (enrichment ratio); higher = better substrate or ligand; peptides without Tyr show the background
phosphorylation enrichment listing for selected sequences.
endpoint: phosphorylation enrichment

>>> measured_result("NGRTGYVLQPE [PLCG2_Y1036]")
0.399
>>> measured_result("LAETSYVKVLE [MAGEA1_Y276]")
0.452
>>> measured_result("FETSHYPASPD [CTNND2_Y1217_YF]")
0.323
>>> measured_result("TKYVAYIESQG [KDM4B_Y34_N29T]")
0.331
>>> measured_result("PEPHIYAVADV [MYO9A_Y216_L211P]")
2.97

###

Biological target: EPHB2 (UniProt P29323)
Sequence (P29323 whole entry, looked up): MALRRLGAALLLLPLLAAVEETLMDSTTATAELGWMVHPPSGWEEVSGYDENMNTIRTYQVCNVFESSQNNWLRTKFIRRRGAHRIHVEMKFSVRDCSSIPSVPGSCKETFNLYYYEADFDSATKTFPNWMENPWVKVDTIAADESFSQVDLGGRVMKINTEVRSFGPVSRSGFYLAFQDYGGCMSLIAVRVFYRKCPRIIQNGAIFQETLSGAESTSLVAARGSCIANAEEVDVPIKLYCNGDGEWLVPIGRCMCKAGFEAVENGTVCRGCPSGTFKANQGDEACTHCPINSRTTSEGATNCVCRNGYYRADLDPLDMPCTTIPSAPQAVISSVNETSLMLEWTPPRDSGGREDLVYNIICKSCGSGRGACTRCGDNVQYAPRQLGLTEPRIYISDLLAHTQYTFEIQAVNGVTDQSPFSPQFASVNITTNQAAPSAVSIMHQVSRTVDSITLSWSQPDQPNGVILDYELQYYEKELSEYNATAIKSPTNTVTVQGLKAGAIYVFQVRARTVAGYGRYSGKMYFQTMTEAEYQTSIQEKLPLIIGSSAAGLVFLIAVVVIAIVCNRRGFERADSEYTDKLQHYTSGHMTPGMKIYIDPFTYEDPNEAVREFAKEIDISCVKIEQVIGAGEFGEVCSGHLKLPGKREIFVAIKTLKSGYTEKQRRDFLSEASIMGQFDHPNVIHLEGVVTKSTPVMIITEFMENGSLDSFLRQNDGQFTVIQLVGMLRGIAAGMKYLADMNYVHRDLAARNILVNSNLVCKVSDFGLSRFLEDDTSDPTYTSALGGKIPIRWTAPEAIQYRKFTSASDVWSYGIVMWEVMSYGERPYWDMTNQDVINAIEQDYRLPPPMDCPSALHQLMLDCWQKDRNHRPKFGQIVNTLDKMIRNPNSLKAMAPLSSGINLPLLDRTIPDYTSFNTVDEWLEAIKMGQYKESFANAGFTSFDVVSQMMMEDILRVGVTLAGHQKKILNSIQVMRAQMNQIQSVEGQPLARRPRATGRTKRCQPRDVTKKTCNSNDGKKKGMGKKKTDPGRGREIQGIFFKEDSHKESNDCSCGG
Experiment: phosphorylation enrichment, bacterial display (enrichment ratio); higher = better substrate or ligand; peptides without Tyr show the background
endpoint: phosphorylation enrichment

>>> measured_result("AVNDFYAAKKT [CCDC178_Y422]")
0.372
>>> measured_result("RSSKTYLKTRS [LPL_Y329_M328T]")
0.561
>>> measured_result("GHLYAYNWISI [BEST1_Y227_D228N]")
5.2
>>> measured_result("FETSHYPASPD [CTNND2_Y1217_YF]")
0.408
>>> measured_result("FSIAQYCCRMG [LRRK2_Y2023_G2019S_YF]")
5.07
>>> measured_result("QRMGTYGVRAA [ICAM2_Y260]")
0.657
>>> measured_result("GFEVVYVTEPI [HSP90AB1_Y512_M513V]")
0.465
>>> measured_result("GEPLSYTRFSL [TFRC_Y20]")
0.455
